Test system: RPMI-8226 leukemia
protocol: NCI tumour cell line growth inhibition, 48 h
measured_attribute: TGI

COC(=O)/C(C#N)=C1\CCC(OC)N1 (stereo not drawn); > 100 µM
CCOC(=O)c1csc(NC(=O)CN2CCN(c3ccccc3)CC2)n1; > 100 µM
CC(CN(C)C)C(C#N)(c1ccccc1)c1ccccc1 (stereo not drawn); > 100 µM

Exam item: Can you share its TGI? I mean this compound: NC(N)=Nc1ccc(CC(N)C(=O)NCC(=O)C(CC(=O)O)c2ncc(NC(=O)C(F)(F)F)o2)cc1 (stereo not drawn)
Marked response: > 25 µM

Exam item: Can you share its TGI? I mean this compound: CCOC(=O)[C@]12C3C=CC(C3)C1C(=O)C1OC12 (stereo partly drawn)
Marked response: > 100 µM

Exam item: Can you share its TGI? I mean this compound: CN(C)C1C(CO)OC(n2cnc3c(N)ncnc32)C1O (stereo not drawn)
Marked response: > 100 µM

Exam item: Can you share its TGI? I mean this compound: `COC(=O)[C@@H]1CCc2nc3ccccc3c(=O)n21`
Marked response: > 100 µM

Exam item: Can you share its TGI? I mean this compound: `O=C(O)Cc1cc(F)ccc1C(=O)O`
Marked response: > 100 µM

###

Test system: PC-3 prostate
protocol: NCI tumour cell line growth inhibition, 48 h
TGI by entry:

Exam item: Can you share its TGI? I mean this compound: `CC1=C(C)C(=O)C(C2=C(C3=CC(=O)C(C)=C(C)C3=O)C(=O)C(C)=C(C)C2=O)=CC1=O`
Marked response: 16 µM

Exam item: Can you share its TGI? I mean this compound: CCOC(=O)C(CC(C)C)NC(=O)C(Cc1ccc(N(CCCl)CCCl)cc1)NC(C)=O (stereo not given)
Marked response: 57.8 µM

Exam item: Can you share its TGI? I mean this compound: `Cc1cccc(/C=N/NC(=S)Nc2ccc(Cl)cc2)n1`
Marked response: 26.2 µM

Exam item: Can you share its TGI? I mean this compound: C=C1C(O)C2C(=C(CC(C)C)C13CC3)C(=O)C(C)(C)C2O (stereo not given)
Marked response: > 100 µM

Exam item: Can you share its TGI? I mean this compound: `C1CSC2=C(S1)SC1=C(S2)SC(=C2SC3=C(SC4=C(SCCS4)S3)S2)S1`
Marked response: > 100 µM

###

TGI by entry:
Test system: SF-295 CNS
protocol: NCI tumour cell line growth inhibition, 48 h

Example results:
O=C(O)/C(=C/c1ccccc1)c1ccccc1; > 100 µM
[N-]=[N+]=CC(=O)OC1CCOCC1; > 100 µM
O=C1NC(=O)/C(=C/c2ccc3ncccc3c2)S1; > 25 µM
COc1ccc(C(c2ccc(OC)cc2)N2C(=O)CCC2C(=O)O)cc1 (configuration not stated); > 100 µM
Cn1c([N+](=O)[O-])cnc1/C=C1\Oc2ccc(Br)cc2C1=O; 7.85 µM
C(=N\c1cc2cc(Sc3ccccc3)ccc2[nH]1)/c1ccccc1; > 12.5 µM

Exam item: Can you share its TGI? I mean this molecule: NC(=O)C1CCCNC1 (configuration not stated)
Marked response: > 100 µM

Exam item: Can you share its TGI? I mean this molecule: `CCN(Cc1cc(F)cc(F)c1)c1ccc(CO)c(Cl)c1`
Marked response: 14.3 µM

Exam item: Can you share its TGI? I mean this molecule: `Cn1cc(-c2csc(-c3c[nH]c4ccc(F)cc34)n2)c2cccnc21`
Marked response: 27 µM

Exam item: Can you share its TGI? I mean this molecule: `CC1(C)COC(c2ccccc2-c2ccccc2)=N1`
Marked response: > 100 µM

Exam item: Can you share its TGI? I mean this molecule: `CCOC(=O)c1csc(NC(=O)CN2CCN(c3ccccc3)CC2)n1`
Marked response: > 100 µM

Where these numbers come from: PubChem BioAssay (NCI)
